- EXPERIMENT: in vivo
- Type: in vivo, mice
- EXPERIMENTAL CONTEXT: mouse, in vivo, po
RESULT TYPE: LD50 (mg/kg)

{"MOL SMILES": "CC(=O)Nc1ccc(O)cc1", "U": "mg/kg", "REPORTED": 1500}
